- test_summary: A qHTS for Small Molecule Inhibitors of Shiga Toxin
- condition_context: Vero cells, Shiga toxin protein synthesis inhibition reporter; at 38.7 µM
Screen size: about 290,000 compounds; about 27,000 (9.3%) were called active. Cut-off read from the data, not from the text of the source: active = inhibition mostly above about 28% (no sharp cut-off); inactive = mostly below about 43%. The sample holds actives, similar compounds and a random draw of the others, so the mix is not that of the screen.
Classes used: active, inactive

{"columns": ["molecule", "discrete_label"],
 "data": [
  ["COc1ccccc1C(=O)Nc1ccc(OCc2nnc3c4ccccc4c(C)nn23)cc1", "inactive"],
  ["COc1ccccc1N=C(C)C1=C(O)COC1=O", "inactive"],
  ["CC(=O)Oc1ccc(-c2cccc(C(=O)N3CCCCC3)c2)cc1", "inactive"],
  ["COc1cccc(COc2ccc(N(C)S(=O)(=O)c3ccccc3)cc2)c1", "inactive"],
  ["COc1ccc(OCc2cccc(C(=O)N3CCCC3)c2)cc1", "active"],
  ["COc1ccc(Cn2c(=S)[nH]c3cc(C(=O)N4CCCCC4)ccc3c2=O)cc1", "inactive"],
  ["O=C(Nc1ccccc1N1CCCC1)c1ccc2ccccc2c1", "inactive"],
  ["CCc1ccc(OCC2c3cc(OC)c(OC)cc3CCN2C(C)=O)cc1 (stereo unspecified)", "inactive"],
  ["COc1ccc(NC(=S)N2CCC(NC(=O)c3cccc(F)c3)CC2)cc1", "inactive"],
  ["COc1ccccc1CNC(=O)c1ccc(CS(=O)(=O)c2ccccc2)o1", "inactive"],
  ["CN1C(=O)C(CC(=O)Nc2ccccc2)S/C1=N/c1nccs1 (stereo unspecified)", "inactive"]
]}

Reference for the values: PubChem BioAssay AID2315
